Experiment: Liver microsome stability, rat
Format: in vitro ADME
Conditions: liver microsomes, read-out: Liver Microsome Stability (t1/2)
Hi there, I'd appreciate the recorded half-life for every entry that follows.
Numbers only, in h.

Give me half-life for each of these compounds, listed below.
1. CC(O)C(CC(F)F)(c1ccc(C(F)(F)F)cc1)n1ncc2c(NS(C)(=O)=O)cccc21 (single isomer, unassigned)
2. CCC(c1ccc(Br)cc1)(C(C)O)n1ncc2c(NS(C)(=O)=O)cccc21 (single isomer, unassigned)
3. CS(=O)(=O)Nc1cccc2c1cnn2C(CC(F)F)(C(N)=O)c1ccc(C(F)(F)F)cc1 (single isomer, unassigned)
4. CCC(c1ccc(C(F)(F)F)cc1)(C(C)O)n1ncc2c(NS(C)(=O)=O)cc(F)cc21 (single isomer, unassigned)
5. CCC(c1ccc(C(F)(F)F)cc1)(C(O)C(F)F)n1ncc2c(NS(C)(=O)=O)cccc21 (single isomer, unassigned)
6. CCC(O)C(CC)(c1ccc(C(F)(F)F)cc1)n1ncc2c(NS(C)(=O)=O)cccc21 (single isomer, unassigned)

Reply:
1: 2.03; 2: 0.883; 3: 1.62; 4: 3.9; 5: 2.57; 6: 1.02

This collection of values is drawn from patent US9511052B2.
